Source of measurements: PubChem BioAssay AID1159580

# PROTOCOL DESCRIPTION: chemical genetic growth profiling, strain panel (AID 1159580);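 also: tested at 20 µM; growth read once vehicle control cultures reached saturation at 30 °C; 1 = growth at the plate median or of vehicle wells; lower values mean less growth of the strain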
# REPORTED CONDITIONS: S. cerevisiae deletion strains, growth OD, locus YER167W, strain BCK2, hits give low values
Among all 5,500 compounds or so, about 2,000 (36%) were called active. Not shown: some 18% with an inconclusive outcome. Some of the results follow.
ATTRIBUTE MEASURED: normalized growth
// return just the number, without any unit appended

# example entries with known answers
[[record]]
compound = "Clc1ccc(C(c2ccc(Cl)cc2)C(Cl)(Cl)Cl)cc1"
attribute_measured = "normalized growth"
readout_value = 1.01

[[record]]
compound = "O=C(O)c1cc2cc(F)ccc2[nH]1"
attribute_measured = "normalized growth"
readout_value = 1.01

[[record]]
compound = "COc1ccc(C(c2ccc(OC)cc2)C(Cl)(Cl)Cl)cc1"
attribute_measured = "normalized growth"
readout_value = 0.996

[[record]]
compound = "c1ccc2c(c1)CCCC2C1=NCCN1 (stereo not given)"
attribute_measured = "normalized growth"
readout_value = 1.01


# input for lookup
I would be grateful if you could share the reported normalized growth for C[C@@H]1O[C@@H](O[C@H]2[C@H](Oc3cc(O)c4c(=O)cc(-c5ccc(O)cc5)oc4c3)O[C@H](CO)[C@@H](O)[C@@H]2O)[C@H](O)[C@H](O)[C@H]1O .
0.994
